QUANTITY KIND: melting point

Some solved entries appear below for comparison.
> print(dat)
                               smiles.entry  quantity.kind       test.value
1               CCCCC(=O)c1ncc(-c2ccccn2)o1  melting point      36 to 37 °C
2         C#CCCCCCCCC(=O)c1ncc(-c2ccccn2)o1  melting point  64.5 to 65.5 °C
3             CCCCCCC(=O)c1ncc(-c2ccccn2)o1  melting point            52 °C
4  CCCCCCCCCCCCCCCCCC(=O)c1ncc(-c2ccccn2)o1  melting point      86 to 87 °C
5              CCCCCC(=O)c1ncc(-c2ccccn2)o1  melting point    49 to 50.5 °C
6                 CCC(=O)c1ncc(-c2ccccn2)o1  melting point      65 to 67 °C
7                CCCC(=O)c1ncc(-c2ccccn2)o1  melting point      54 to 55 °C

With those in mind, consider the next compound.
Qu. Determine from records and report melting point for CCCCCCCCCCCCCC(=O)c1ncc(-c2ccccn2)o1
Ans. 79 to 80 °C

----------
QUANTITY KIND: melting point

Some solved entries appear below for comparison.
> print(dat)
                                   compound       test.value
1  CCCCCCCCC#CCCCCCCCC(=O)c1ncc(-c2ccccn2)o1 [Compound 205]            41 °C
2  CCCCCCCCC(=O)c1ncc(-c2ccccn2)o1 [Compound 188]      56 to 57 °C
3  CCCCCCCCCC(=O)c1ncc(-c2ccccn2)o1 [Compound 187]      56 to 57 °C
4  CCCCCCCC(=O)c1ncc(-c2ccccn2)o1 [Compound 189]            56 °C
5  O=C(CCCCCCCc1ccccc1)c1ncc(-c2ccccn2)o1 [Compound 201]      72 to 73 °C
6  O=C(CCCCCc1ccccc1)c1ncc(-c2ccccn2)o1 [Compound 199]  43.5 to 45.5 °C

Qu. Determine from records and report melting point for O=C(CCCCc1ccccc1)c1ncc(-c2ccccn2)o1 [Compound 198]
Ans. 49 to 51 °C

Qu. Determine from records and report melting point for C=CCCCCCCCC(=O)c1ncc(-c2ccccn2)o1 [Compound 203]
Ans. 55 to 57 °C

Qu. Determine from records and report melting point for CCCCCCCCCCCCCCCC(=O)c1ncc(-c2ccccn2)o1 [Compound 183]
Ans. 78 to 80 °C

Qu. Determine from records and report melting point for CCCCCCCCCCCC(=O)c1ncc(-c2ccccn2)o1 [Compound 185]
Ans. 73 to 74 °C

Data origin, for the record: patent US7662971B2
